Field: % Suppression vs. Vehicle. Provide a value for each of the compounds that follow.
- TARGET UNDER TEST: mouse TLR7 (Mus musculus, UniProt P58681)
- Construct: tissue Jackson Labs; host or cells: live female BALB/c mice
- Sequence (P58681 27-1050): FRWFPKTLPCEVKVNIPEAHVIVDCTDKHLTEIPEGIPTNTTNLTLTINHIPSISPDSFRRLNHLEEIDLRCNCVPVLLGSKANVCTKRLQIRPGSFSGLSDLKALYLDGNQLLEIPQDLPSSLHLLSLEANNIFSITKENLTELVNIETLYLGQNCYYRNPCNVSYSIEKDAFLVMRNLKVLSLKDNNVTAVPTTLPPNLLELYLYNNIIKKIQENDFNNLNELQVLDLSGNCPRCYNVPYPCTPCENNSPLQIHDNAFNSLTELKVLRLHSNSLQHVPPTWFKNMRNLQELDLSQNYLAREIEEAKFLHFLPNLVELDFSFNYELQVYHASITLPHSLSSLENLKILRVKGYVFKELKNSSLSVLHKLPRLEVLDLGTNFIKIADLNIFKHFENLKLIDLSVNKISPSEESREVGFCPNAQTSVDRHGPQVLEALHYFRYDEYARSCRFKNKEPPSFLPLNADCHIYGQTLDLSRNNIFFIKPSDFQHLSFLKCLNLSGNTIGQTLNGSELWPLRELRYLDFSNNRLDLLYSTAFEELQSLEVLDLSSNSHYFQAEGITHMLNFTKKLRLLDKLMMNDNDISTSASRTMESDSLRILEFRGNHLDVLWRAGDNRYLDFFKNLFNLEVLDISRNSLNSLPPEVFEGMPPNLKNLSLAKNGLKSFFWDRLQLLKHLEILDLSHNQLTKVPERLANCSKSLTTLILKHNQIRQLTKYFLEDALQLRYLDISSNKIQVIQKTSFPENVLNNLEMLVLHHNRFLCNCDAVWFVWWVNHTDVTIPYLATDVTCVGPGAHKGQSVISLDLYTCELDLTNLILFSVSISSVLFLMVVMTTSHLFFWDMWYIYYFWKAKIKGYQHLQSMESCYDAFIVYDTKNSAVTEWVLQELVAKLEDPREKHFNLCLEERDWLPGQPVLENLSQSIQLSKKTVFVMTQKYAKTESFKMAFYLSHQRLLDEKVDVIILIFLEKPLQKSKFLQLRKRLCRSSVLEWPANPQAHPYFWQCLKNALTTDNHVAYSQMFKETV
- ASSAY NOTES: Short-term in vivo (STIV) assay, plasma IL-6 after R848
- MEASUREMENT SETUP: 6 h after oral dose, 100 mg/kg; plasma IL-6 after R848 s.c.; BALB/c mice
One number for each entry, in %.

Example results:
C[C@H]1C[C@@H](NS(=O)(=O)CCCN(C)C)CN(c2ccc(C#N)c3ncccc23)C1 :: 89
CC1CC(NC2CCOC2)CN(c2ccc(C#N)c3ncccc23)C1 (stereo not shown) :: 97
CC1CC(NC(=O)C2(C)COC2)CN(c2ccc(C#N)c3ncccc23)C1 (stereo not shown) :: 94

--- query ---
Lab request: please report % Suppression vs. Vehicle under test system mouse TLR7 (Mus musculus, UniProt P58681) for CC1CC(NC2COC2)CN(c2ccc(C#N)c3ncccc23)C1 (stereo not shown)
97
